- assay_protocol: AUC in cynomolgus monkey at 3 mg/kg, po
- Assay type: ADME, organism-based, Macaca fascicularis
- Design: dose 3 mg/kg, route oral
- setup_conditions: plasma
parameter_measured: AUC (µM·h)
Numbers only, in µM·h.

Incoming: Can you share its AUC? I mean this compound: CC(C)(C)[C@H](NC(=O)NC1(C(=O)OCc2ccccc2)CCCCC1)C(=O)N1C[C@H]2[C@@H]([C@H]1C(=O)NC(CC1CC1)C(=O)C(N)=O)C2(C)C (mixture of isomers)
Outgoing: 0.05

====

- assay_protocol: Clearance in rat at 10 mg/kg, po and at 10 mg/kg, iv
- Type: ADME, organism-based
- setup_conditions: in vivo
parameter_measured: clearance (mL/min/kg)
Give bare numbers, in mL/min/kg.

Incoming: Can you share its clearance? I mean this compound: CC(C)(C)[C@H](NC(=O)NC1(C(=O)OCc2ccccc2)CCCCC1)C(=O)N1C[C@H]2[C@@H]([C@H]1C(=O)NC(CC1CC1)C(=O)C(N)=O)C2(C)C (mixture of isomers)
Outgoing: 28

====

Consider the following compounds; for each one, report its CC50.
- assay_protocol: Cytotoxicity against human hepatocytes assessed as effect on GAPDH RNA level […]
- Type: cell-based, Hepatocyte

| compound | recorded_result |
| --- | --- |
| CC(C)(NC(=O)N[C@H](C(=O)N1C[C@H]2[C@@H]([C@H]1C(=O)NC(CC1CC1)C(=O)C(N)=O)C2(C)C)C(C)(C)C)C(=O)OCc1ccccc1 (mixture of isomers) | > 5 µM |
| CC(C)(C)NC(=O)N[C@H](C(=O)N1C[C@H]2[C@@H]([C@H]1C(=O)NC(CC1CCC1)C(=O)C(N)=O)C2(C)C)C(C)(C)C (stereo partly specified) [BOCEPREVIR] | > 5 µM |

List the reported CC50 of each compound below.
1. CC(C)(C)[C@H](NC(=O)NC1(C(=O)NS(=O)(=O)c2ccccc2)CCCCC1)C(=O)N1C[C@H]2[C@@H]([C@H]1C(=O)NC(CC1CC1)C(=O)C(N)=O)C2(C)C (mixture of isomers)
2. CC1(NC(=O)N[C@H](C(=O)N2C[C@H]3[C@@H](C2C(=O)NC(CC2CCC2)C(=O)C(N)=O)C3(C)C)C(C)(C)C)CCCCC1 (stereo partly specified)
3. C=CCNC(=O)C(=O)C(CCC)NC(=O)[C@@H]1[C@@H]2[C@H](CN1C(=O)[C@@H](NC(=O)N[C@H](C(=O)C1CC1)C(C)C)C(C)(C)C)C2(C)C (mixture of isomers)
4. CC(C)(C)[C@H](NC(=O)NC1(C(=O)NCc2ccccc2)CCCCC1)C(=O)N1C[C@H]2[C@@H]([C@H]1C(=O)NC(CC1CC1)C(=O)C(N)=O)C2(C)C (mixture of isomers)

Outgoing:
1. > 5 µM
2. > 5 µM
3. > 5 µM
4. > 5 µM

====

- assay_protocol: Inhibition of HCV NS4A-tethered single chain NS3 serine protease by spectrophotometric assay
- Design: species or system Hepacivirus hominis
parameter_measured: pKi
Answers are plain numbers, as −log10 of the molar value.

Reference set (4 entries):
| compound | parameter_measured | recorded_result |
| --- | --- | --- |
| CO/N=C(\c1ccccc1)[C@@H](NC(=O)N[C@H](C(=O)N1C[C@H]2[C@@H]([C@H]1C(=O)NC(CC1CC1)C(=O)C(N)=O)C2(C)C)C(C)(C)C)C(C)C (mixture of isomers) | pKi | 7.30 |
| CC1(NC(=O)N[C@H](C(=O)N2C[C@H]3[C@@H]([C@H]2C(=O)NC(CC2CC2)C(=O)C(N)=O)C3(C)C)C(C)(C)C)CCCCC1 (mixture of isomers) | pKi | 8.05 |
| C=CCNC(=O)C(=O)C(CCCC)NC(=O)[C@@H]1[C@@H]2[C@H](CN1C(=O)[C@@H](NC(=O)N[C@H](C(=O)C1CC1)C1CCCCC1)C(C)(C)C)C2(C)C (mixture of isomers) | pKi | 7.42 |
| C#CCCC(NC(=O)[C@@H]1[C@@H]2[C@H](CN1C(=O)[C@@H](NC(=O)N[C@H](C(=O)C1CC1)C1CCCCC1)C(C)(C)C)C2(C)C)C(=O)C(=O)NC1CC1 (mixture of isomers) | pKi | 8.40 |

Incoming: Can you share its pKi? I mean this compound: CC(=O)[C@@H](NC(=O)N[C@H](C(=O)N1C[C@H]2[C@@H]([C@H]1C(=O)NC(CC1CC1)C(=O)C(N)=O)C2(C)C)C(C)(C)C)C(C)C (mixture of isomers)
Outgoing: 7.85
